Each entry below lists one item and its recorded IC50 value.
subject-of-test: BACE1 (Homo sapiens)
procedure-details: In Vitro Enzymatic BACE FRET (Fluorescence Resonance Energy Transfer) Assay
Assay type: biochemical
condition: Table IV, class symbols; read-out: BACE1 FRET assay

Worked examples, 3 compounds total:
NC1=N[C@]2(CO1)c1ccccc1Oc1ccc(-c3c(F)ccnc3F)cc12 | 0.1 to 1 µM
CC(C)(C)COc1ccc2c(c1)[C@]1(COC(N)=N1)c1cc(-c3cnccc3Cl)ccc1O2 | < 0.1 µM
NC1=N[C@@]2(CO1)c1cc(-c3cncnc3)ccc1Oc1ncc(C3=CCOCC3)cc12 | < 0.1 µM

# evaluate next
[in] Request: IC50, test system BACE1 (Homo sapiens), entry Cc1ccc(-c2cnc3c(c2)[C@]2(COC(N)=N2)c2cc(-c4cncnc4)ccc2O3)cc1
[out] < 0.1 µM

---

Collected pIC50 values appear next to each entry.
subject-of-test: BACE1 (Homo sapiens)
procedure-details: In Vitro BACE Cell-based Assay (HEK cell assay): Aβ40 in conditioned medium of cells stably expressing Amyloid Precursor Protein, sandwich ELISA
condition: HEK cells; read-out: HEK cell assay
pIC50: −log10 of the molar value.

[in] What pIC50 value was documented for this compound, CC(C)(F)COc1cc(F)c2c(c1)[C@]1(COC(N)=N1)c1cc(-c3cncnc3)ccc1O2 [Example 293] ?
[out] > 7.00

[in] # query: pIC50 of entry NC1=N[C@]2(CO1)c1cc(C3=CCOCC3)ccc1Oc1cnc(Cl)cc12 [compound 499]
[out] < 5.30

[in] Given NC1=N[C@@]2(CO1)c1cc(-c3cc(F)ccc3F)ccc1Oc1ncc(N3C[C@@H]4C[C@H]3CO4)cc12 [compound 453] , state its recorded pIC50.
[out] > 7.00

[in] Any idea what pIC50 was measured for CC(C)(C)COc1ccc2c(c1)C1(COC(N)=N1)c1cc(NC(=O)c3ccc(Cl)cn3)ccc1O2 (stereo not shown) [compound 522] ?
[out] > 7.00

[in] Given the entry CC(C)(C)C#Cc1ccc2c(n1)[C@@]1(COC(N)=N1)c1cc(-c3cncnc3)ccc1O2 [compound 528] , report its measured pIC50.
[out] > 7.00

[in] // returns reported pIC50 for input NC1=N[C@]2(CO1)c1cc(C3=CCOCC3)ccc1Oc1cnc(-c3ccccc3F)cc12 [compound 498]
[out] 6.00 to 7.00

[in] Quick check: pIC50 of CC1(C)CN(c2cnc3c(c2)[C@]2(COC(N)=N2)c2cc(-c4cccnc4F)ccc2O3)CCO1 [compound 463] ?
[out] > 7.00

[in] May I ask what pIC50 has been recorded for CCC1(CC)CN(c2ccc3c(c2)[C@]2(COC(N)=N2)c2cc(-c4cncnc4)ccc2O3)CCO1 [compound 467] ?
[out] 6.00 to 7.00

[in] Bench note: what pIC50 did C[C@@H]1CN(c2cc(F)c3c(c2)[C@]2(COC(N)=N2)c2cc(-c4cncnc4)ccc2O3)C[C@H](C)O1 [compound 501] show?
[out] > 7.00

[in] Tell me the measured pIC50 of CC1(C#Cc2cnc3c(c2)[C@]2(COC(N)=N2)c2cc(-c4cc(F)ccc4F)ccc2O3)COC1 [compound 519] , please.
[out] > 7.00

---

Some molecules, each annotated with its measured IC50.
subject-of-test: BACE1 (Homo sapiens, UniProt P56817)
Sequence (P56817 46-501, species assumed): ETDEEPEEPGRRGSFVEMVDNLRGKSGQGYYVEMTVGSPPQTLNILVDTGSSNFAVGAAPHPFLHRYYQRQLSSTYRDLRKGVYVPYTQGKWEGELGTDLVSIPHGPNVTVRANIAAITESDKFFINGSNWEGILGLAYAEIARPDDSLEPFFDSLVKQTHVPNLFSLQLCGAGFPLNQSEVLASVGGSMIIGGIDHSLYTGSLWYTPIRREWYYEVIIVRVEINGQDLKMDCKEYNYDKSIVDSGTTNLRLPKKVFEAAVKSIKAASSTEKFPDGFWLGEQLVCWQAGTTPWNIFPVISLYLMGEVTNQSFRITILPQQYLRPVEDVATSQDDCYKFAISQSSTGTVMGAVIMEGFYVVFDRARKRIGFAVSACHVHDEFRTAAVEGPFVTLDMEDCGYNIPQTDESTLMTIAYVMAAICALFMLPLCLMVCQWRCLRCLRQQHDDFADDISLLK
procedure-details: In Vitro Enzymatic BACE FRET (Fluorescence Resonance Energy Transfer) Assay
Assay type: biochemical
condition: Table III; IC50's in uM ranges; read-out: BACE1 FRET assay

COCC#Cc1ccc2c(c1)[C@]1(COC(N)=N1)c1cc(-c3cncnc3)ccc1O2 [156a] | < 0.1 µM

[in] Identify the measured IC50 of NC1=NC2(CO1)c1cc(-c3cccnc3)ccc1Oc1ncc(-c3cccnc3)cc12 (stereo not shown) [Example 113] for BACE1 (Homo sapiens, UniProt P56817).
[out] < 0.1 µM

[in] Value wanted: IC50 (BACE1 (Homo sapiens, UniProt P56817)) of entry CC(C)(C)COc1ccc2c(c1)[C@]1(COC(N)=N1)c1cc(-c3cncnc3)cc(F)c1O2 [155b]
[out] < 0.1 µM

[in] What value of IC50 on BACE1 (Homo sapiens, UniProt P56817) does COc1ccc2c(c1)[C@@]1(N=C(N)O[C@H]1C)c1cc(-c3cncnc3)ccc1O2 (single isomer, unassigned) [Example 125b] have?
[out] 0.1 to 1 µM

[in] Item: Cc1cncc(-c2ccc3c(c2)[C@@]2(COC(N)=N2)c2cc(OCC(C)(C)O)ccc2O3)c1 [compound 223] Test system: BACE1 (Homo sapiens, UniProt P56817) Read-out: IC50 Value: ?
[out] < 0.1 µM

[in] Notebook: pull reported IC50 for BACE1 (Homo sapiens, UniProt P56817), entry CCOC(C)(C)COc1ccc2c(c1)[C@]1(COC(N)=N1)c1cc(-c3cccnc3)ccc1O2 [compound 172]
[out] < 0.1 µM

[in] Form: Entry = C[C@@H]1OC(N)=N[C@@]12c1cc(OCC(C)(C)C)ccc1Oc1ccc(-c3cncnc3)cc12 [126b] | System = BACE1 (Homo sapiens, UniProt P56817) | IC50 = ____
[out] < 0.1 µM

[in] BACE1 (Homo sapiens, UniProt P56817) / IC50 / NC1=N[C@]2(CO1)c1cc(-c3cccnc3)ccc1Oc1ncc(Br)cc12 [compound 174] : value?
[out] < 0.1 µM

[in] For the record CC(C)(C)CCc1ccc2c(c1)[C@@]1(COC(N)=N1)c1cc(-c3ccc(F)nc3)ccc1O2 [153a] , what value of IC50 is listed for BACE1 (Homo sapiens, UniProt P56817)?
[out] < 0.1 µM

[in] Hi! What's the reported IC50 for Cc1ccccc1-c1ccc2c(c1)[C@]1(COC(N)=N1)c1cc(-c3cncnc3)ccc1O2 [compound 220] on BACE1 (Homo sapiens, UniProt P56817)?
[out] < 0.1 µM

[in] # query: IC50 | item COCC#Cc1ccc2c(c1)[C@@]1(COC(N)=N1)c1cc(-c3cncnc3)ccc1O2 [156b] | system: BACE1 (Homo sapiens, UniProt P56817)
[out] 0.1 to 1 µM

[in] // lookup IC50 | system=BACE1 (Homo sapiens, UniProt P56817) | key= CC(C)(C)COc1ccc2c(c1)[C@@]1(COC(N)=N1)c1cc(-c3ccc(C#N)cc3)ccc1O2 [Example 128]
[out] < 0.1 µM

[in] Kindly state the measured IC50 obtained for CC(C)(F)COc1ccc2c(c1)[C@]1(COC(N)=N1)c1cc(-c3cccnc3)ccc1O2 [compound 148] with BACE1 (Homo sapiens, UniProt P56817).
[out] < 0.1 µM

[in] Request - read-out IC50 | tested on BACE1 (Homo sapiens, UniProt P56817) | molecule CC(C)(C)CCc1ccc2c(c1)[C@]1(COC(N)=N1)c1cc(Oc3ccccn3)ccc1O2 [compound 205]
[out] < 0.1 µM

[in] BACE1 (Homo sapiens, UniProt P56817) / IC50 / Cn1cncc1-c1ccc2c(c1)[C@]1(COC(N)=N1)c1cc(OCC(C)(C)C)ccc1O2 [compound 187] : value?
[out] 1 to 5 µM
